B1: Hairpin Ribozyme (parent)
chain: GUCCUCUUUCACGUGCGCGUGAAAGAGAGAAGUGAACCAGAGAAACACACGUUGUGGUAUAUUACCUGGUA

Variants of: B1
Test: self-cleavage, relative activity (ratio to wild type); higher = more cleavage; co-transcriptional
Each entry gets label 0 if its self-cleavage stays under 0.2, and label 1 if its self-cleavage is 0.2 or above.

The examples below pair each entry with its known result.
## Input Identify whether the reported self-cleavage of the following variant is 0.2 or greater: GUCCUCUUUCACGUGGGCGUGAAAGAGAGAAGUGAACCAGAGAAACACAUGUUGUGGUAUAUUACCUGGUA
## Output label 1

## Input Identify whether the reported self-cleavage of the following variant is 0.2 or greater: GUCCUCUUUCACGUGCGCGGGAAAGAGAGAAGUGAACCAGAUAAACACACGUUGUGGUAUAUUACCUGGUA
## Output label 1

## Input Identify whether the reported self-cleavage of the following variant is 0.2 or greater: GUCCUCUUUCACGUGCGCGUGAAAGAGAGAAGUGAACCAGCGAAACUCACGUUGUGGUAUAUUACCUGGUA
## Output label 1

## Input Identify whether the reported self-cleavage of the following variant is 0.2 or greater: GUCCUCUUUCACGUGCGCGUGAAAGAGAGAAGUGAAGCAGAGAAACACACUUUGUGGUAUAUUACCUGGUA
## Output label 1

## Input Identify whether the reported self-cleavage of the following variant is 0.2 or greater: GUCCUCUUUCAUGUGCGCGUGAAAGAGAGAAGUGAACCAGGGAAACACACGUUGUGGUAUAUUACCUGGUA
## Output label 1

Please examine the following record next.
## Input Identify whether the reported self-cleavage of the following variant is 0.2 or greater: GUCCUCUUUCACGUGCGCGUGAAAGAGAUAAGUGAACCAGAGAAACACACGUUGCGGUAUAUUACCUGGUA
## Output label 0
